assay: self-splicing fitness, log relative to wild type (ln ratio); higher = more splicing; Tetrahymena group I intron in knt gene, E. coli kanamycin selection, DiMSum; sequences stand for … in CUCUCU…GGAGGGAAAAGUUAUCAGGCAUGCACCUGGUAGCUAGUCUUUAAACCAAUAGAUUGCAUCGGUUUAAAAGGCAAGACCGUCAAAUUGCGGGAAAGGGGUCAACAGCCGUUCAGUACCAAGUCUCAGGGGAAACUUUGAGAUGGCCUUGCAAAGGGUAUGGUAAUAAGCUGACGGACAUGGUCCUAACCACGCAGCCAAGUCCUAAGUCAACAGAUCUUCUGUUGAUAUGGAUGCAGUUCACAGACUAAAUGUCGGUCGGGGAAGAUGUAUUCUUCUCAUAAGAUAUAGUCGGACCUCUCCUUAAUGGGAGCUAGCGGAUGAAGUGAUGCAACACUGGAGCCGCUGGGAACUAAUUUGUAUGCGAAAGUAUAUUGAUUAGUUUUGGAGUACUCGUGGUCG; conditions: 37 °C;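 further: selection with 25 µg/mL kanamycin versus none on LB agar overnight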
Task for the reader: assign each of the following sequences its reported self-splicing fitness (ln).
Give bare numbers.

{"Seq text": "UGACAGCAAUAUUACGAAGG", "self-splicing fitness (ln)": -1.36}

Kindly give each listed record's self-splicing fitness (ln).
1. CAGCAGCAAUAUUACGGCAA
2. GCUAAGCAAUAUUACGUCGG
3. UACGAGCAAUAUUACGCUGA
4. CCUUAGCAAUAUUACGAGAU
5. GCCCAGCAAUAUUACGGUAU
6. ACACAGCAAUAUUACGGUAC
7. UCCGAGCAAUAUUACGCAUU
8. CUCAAGCAAUAUUACGCACA

Response line:
1. -1.45
2. -0.876
3. -2.02
4. -2.79
5. -0.0153
6. -2.03
7. -3.08
8. -2.48

Kindly give each listed record's self-splicing fitness (ln).
1. CCGCAGCAAUAUUACGCGGA
2. UACCAGCAAUAUUACGAGCG
3. UUCCAGCAAUAUUACGUCUC
4. CCAGAGCAAUAUUACGCGCG
5. UCUUAGCAAUAUUACGGAGC
6. GACGAGCAAUAUUACGUUCU
7. UGCCAGCAAUAUUACGGUAC

Response line:
1: -3.11; 2: 0.206; 3: -1.83; 4: -0.59; 5: -0.68; 6: -2.52; 7: -2.89

---

assay: self-splicing fitness, log relative to wild type (ln ratio); higher = more splicing; Tetrahymena group I intron in knt gene, E. coli kanamycin selection, DiMSum; sequences stand for … in CUCUCU…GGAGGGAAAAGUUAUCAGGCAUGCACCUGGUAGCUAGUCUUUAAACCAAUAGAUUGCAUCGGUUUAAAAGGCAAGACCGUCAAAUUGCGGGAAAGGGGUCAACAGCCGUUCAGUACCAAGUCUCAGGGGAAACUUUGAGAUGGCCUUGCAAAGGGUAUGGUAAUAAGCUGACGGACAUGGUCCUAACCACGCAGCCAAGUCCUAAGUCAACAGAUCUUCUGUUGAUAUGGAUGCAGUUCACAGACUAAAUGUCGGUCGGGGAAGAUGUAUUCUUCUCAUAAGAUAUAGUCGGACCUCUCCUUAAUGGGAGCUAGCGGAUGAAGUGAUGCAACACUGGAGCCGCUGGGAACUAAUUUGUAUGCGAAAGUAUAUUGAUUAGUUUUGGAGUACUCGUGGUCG; details: 37 °C
Please note: 1 applies when self-splicing fitness (ln) is -2 or greater, and -1 applies otherwise.

{"Seq text": "GGUGAGCAAUAUUACGAAGG", "Classification": -1}
{"Seq text": "CCUGAGCAAUAUUACGAGUC", "Classification": -1}
{"Seq text": "UGUAAGCAAUAUUACGUACG", "Classification": 1}
{"Seq text": "UAAUAGCAAUAUUACGAAUC", "Classification": -1}
{"Seq text": "AGCAAGCAAUAUUACGGUAU", "Classification": 1}
{"Seq text": "AAAAAGCAAUAUUACGGGAG", "Classification": 1}

Prompt line: Identify whether the reported self-splicing fitness (ln) of the following sequence is -2 or greater: GGGCAGCAAUAUUACGAUUU
Response line: 1

Prompt line: Identify whether the reported self-splicing fitness (ln) of the following sequence is -2 or greater: CGAAAGCAAUAUUACGCGAU
Response line: -1

Prompt line: Identify whether the reported self-splicing fitness (ln) of the following sequence is -2 or greater: AACUAGCAAUAUUACGCACG
Response line: 1

Prompt line: Identify whether the reported self-splicing fitness (ln) of the following sequence is -2 or greater: ACCAAGCAAUAUUACGCCAC
Response line: -1

Prompt line: Identify whether the reported self-splicing fitness (ln) of the following sequence is -2 or greater: CUACAGCAAUAUUACGCCCU
Response line: -1

Prompt line: Identify whether the reported self-splicing fitness (ln) of the following sequence is -2 or greater: AAUAAGCAAUAUUACGUACU
Response line: 1

Prompt line: Identify whether the reported self-splicing fitness (ln) of the following sequence is -2 or greater: AUAAAGCAAUAUUACGCCUG
Response line: 1

Prompt line: Identify whether the reported self-splicing fitness (ln) of the following sequence is -2 or greater: AGAUAGCAAUAUUACGUCAA
Response line: 1

Prompt line: Identify whether the reported self-splicing fitness (ln) of the following sequence is -2 or greater: AUCGAGCAAUAUUACGUCAA
Response line: 1

Prompt line: Identify whether the reported self-splicing fitness (ln) of the following sequence is -2 or greater: UUGAAGCAAUAUUACGAGCC
Response line: 1

Prompt line: Identify whether the reported self-splicing fitness (ln) of the following sequence is -2 or greater: UGGUAGCAAUAUUACGAAGG
Response line: 1

Prompt line: Identify whether the reported self-splicing fitness (ln) of the following sequence is -2 or greater: UCCAAGCAAUAUUACGGCAG
Response line: -1

Prompt line: Identify whether the reported self-splicing fitness (ln) of the following sequence is -2 or greater: CGUGAGCAAUAUUACGCAAG
Response line: 1

Prompt line: Identify whether the reported self-splicing fitness (ln) of the following sequence is -2 or greater: AUCGAGCAAUAUUACGCAUG
Response line: -1

Prompt line: Identify whether the reported self-splicing fitness (ln) of the following sequence is -2 or greater: GUGAAGCAAUAUUACGGAGU
Response line: 1

---

experiment: self-splicing fitness, log relative to wild type (ln ratio); higher = more splicing; Tetrahymena group I intron in knt gene, E. coli kanamycin selection, DiMSum; sequences stand for … in CUCUCU…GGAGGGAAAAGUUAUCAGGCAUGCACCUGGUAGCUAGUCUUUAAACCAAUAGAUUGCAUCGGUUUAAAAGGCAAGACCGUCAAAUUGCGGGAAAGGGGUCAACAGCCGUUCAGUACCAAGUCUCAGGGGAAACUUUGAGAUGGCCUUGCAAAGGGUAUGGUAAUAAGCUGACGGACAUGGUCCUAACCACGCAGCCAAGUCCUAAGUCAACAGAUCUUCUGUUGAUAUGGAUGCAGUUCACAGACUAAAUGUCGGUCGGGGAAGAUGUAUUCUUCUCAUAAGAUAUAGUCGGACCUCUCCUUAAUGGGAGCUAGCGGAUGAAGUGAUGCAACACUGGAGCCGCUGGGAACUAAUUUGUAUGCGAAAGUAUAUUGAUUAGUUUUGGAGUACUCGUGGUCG; conditions: 30 °C
Task for the reader: assign each of the following sequences its reported self-splicing fitness (ln).
Numbers only.

Examples with their reported self-splicing fitness (ln) follow.
{"Seq text": "AAAAAGCAAUAUUACGGAAU", "self-splicing fitness (ln)": -2.25}
{"Seq text": "UUCCAGCAAUAUUACGUCUA", "self-splicing fitness (ln)": -0.638}
{"Seq text": "GCCUAGCAAUAUUACGGCCA", "self-splicing fitness (ln)": -1.81}

Kindly give each listed record's self-splicing fitness (ln).
1. CCAAAGCAAUAUUACGCGCG
2. CCAGAGCAAUAUUACGGGCU
3. CUAGAGCAAUAUUACGUUGA
4. UUUCAGCAAUAUUACGACGG

Response line:
1: -1.59; 2: -3.24; 3: -4.21; 4: -1.02

Kindly give each listed record's self-splicing fitness (ln).
1. CCAAAGCAAUAUUACGGGUA
2. AUCGAGCAAUAUUACGCCCU
3. ACCUAGCAAUAUUACGUCCU
4. GACCAGCAAUAUUACGGCCU
5. GCCUAGCAAUAUUACGUGGU

Response line:
-2.96
-3.05
-0.685
-2.51
-3.71

Kindly give each listed record's self-splicing fitness (ln).
1. CGAGAGCAAUAUUACGACAA
2. GGGGAGCAAUAUUACGGUUG

Response line:
-1.65
-3.25

Kindly give each listed record's self-splicing fitness (ln).
1. UAUAAGCAAUAUUACGGUAC
2. GUAAAGCAAUAUUACGGUUG

Response line:
-3.46
-2.91

Kindly give each listed record's self-splicing fitness (ln).
1. AUCGAGCAAUAUUACGUCAA
2. CACAAGCAAUAUUACGGGCC
3. GGGAAGCAAUAUUACGAACA

Response line:
-2.72
-3.78
-1.2

Kindly give each listed record's self-splicing fitness (ln).
1. UUAGAGCAAUAUUACGGUCG
2. CAGUAGCAAUAUUACGGGAG
3. AUAAAGCAAUAUUACGUCAA
4. GACUAGCAAUAUUACGUCAG
5. UCUUAGCAAUAUUACGUCGU
6. GACAAGCAAUAUUACGACUU
7. AUAGAGCAAUAUUACGCGAG
8. AAGUAGCAAUAUUACGAUAC

Response line:
1. -1.64
2. -2.37
3. -1.54
4. -2.88
5. -2.2
6. -0.00142
7. -1.54
8. -3.92

Kindly give each listed record's self-splicing fitness (ln).
1. ACGCAGCAAUAUUACGACCC
2. AGAAAGCAAUAUUACGCCGA
3. ACCGAGCAAUAUUACGUAGU
4. CGUCAGCAAUAUUACGUGCA
5. GGAUAGCAAUAUUACGGACA
6. GUGCAGCAAUAUUACGACGA
7. UGUUAGCAAUAUUACGGCUA
8. CAGUAGCAAUAUUACGGGCU

Response line:
[-1.66, -1.29, -3.62, -0.497, -1.68, -0.272, -1.01, -3.56]

Kindly give each listed record's self-splicing fitness (ln).
1. ACCUAGCAAUAUUACGUCUC
2. AAUGAGCAAUAUUACGAUAU
3. UAAAAGCAAUAUUACGCACC
4. CUCCAGCAAUAUUACGGUGA
5. GCCAAGCAAUAUUACGGCCG

Response line:
1: -1.59; 2: -3.25; 3: -2.48; 4: -2; 5: -1.48
